target: MAPK8 (human) (UniProt P45983); assay: radiometric filter-binding kinase assay; conditions: compound 1.0 µM
Sequence (P45983 whole entry, looked up): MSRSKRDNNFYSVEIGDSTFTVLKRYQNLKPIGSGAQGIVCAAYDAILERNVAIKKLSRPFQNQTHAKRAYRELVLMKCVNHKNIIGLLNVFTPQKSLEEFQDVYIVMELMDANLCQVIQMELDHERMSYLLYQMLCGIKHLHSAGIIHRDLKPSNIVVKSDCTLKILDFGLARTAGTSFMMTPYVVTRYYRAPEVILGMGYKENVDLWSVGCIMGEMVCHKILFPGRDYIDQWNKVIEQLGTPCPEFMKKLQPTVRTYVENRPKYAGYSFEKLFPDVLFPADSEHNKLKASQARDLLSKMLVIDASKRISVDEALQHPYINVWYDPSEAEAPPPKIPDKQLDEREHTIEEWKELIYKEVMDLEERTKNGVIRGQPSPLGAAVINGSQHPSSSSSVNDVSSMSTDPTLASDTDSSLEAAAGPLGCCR
Given measured residual activity, output 1 if it is greater than or equal to 90% and -1 if not.

smilesText	className
NCC(=O)Nc1ccc(-n2nc(C(F)(F)F)cc2-c2ccc3c(ccc4ccccc43)c2)cc1	1
CCCC(CCC)C(=O)O	-1
Cc1cc(NC(=O)c2cccc(NC(=O)/C=C/CN(C)C)c2)ccc1Nc1nccc(-c2cccnc2)n1	-1

Kindly consider the entry below.
Please check the record COc1ccc(-n2ncc3cnc(Nc4cc(OC)c(OC)c(OCCCN5CCN(C)CC5)c4)nc32)cc1 and state if its residual activity is at or above 90%.
-1

---

target: UniProt Q8IVH8; experiment: radiometric filter-binding kinase assay; conditions: compound 1.0 µM
Sequence (Q8IVH8 whole entry, looked up): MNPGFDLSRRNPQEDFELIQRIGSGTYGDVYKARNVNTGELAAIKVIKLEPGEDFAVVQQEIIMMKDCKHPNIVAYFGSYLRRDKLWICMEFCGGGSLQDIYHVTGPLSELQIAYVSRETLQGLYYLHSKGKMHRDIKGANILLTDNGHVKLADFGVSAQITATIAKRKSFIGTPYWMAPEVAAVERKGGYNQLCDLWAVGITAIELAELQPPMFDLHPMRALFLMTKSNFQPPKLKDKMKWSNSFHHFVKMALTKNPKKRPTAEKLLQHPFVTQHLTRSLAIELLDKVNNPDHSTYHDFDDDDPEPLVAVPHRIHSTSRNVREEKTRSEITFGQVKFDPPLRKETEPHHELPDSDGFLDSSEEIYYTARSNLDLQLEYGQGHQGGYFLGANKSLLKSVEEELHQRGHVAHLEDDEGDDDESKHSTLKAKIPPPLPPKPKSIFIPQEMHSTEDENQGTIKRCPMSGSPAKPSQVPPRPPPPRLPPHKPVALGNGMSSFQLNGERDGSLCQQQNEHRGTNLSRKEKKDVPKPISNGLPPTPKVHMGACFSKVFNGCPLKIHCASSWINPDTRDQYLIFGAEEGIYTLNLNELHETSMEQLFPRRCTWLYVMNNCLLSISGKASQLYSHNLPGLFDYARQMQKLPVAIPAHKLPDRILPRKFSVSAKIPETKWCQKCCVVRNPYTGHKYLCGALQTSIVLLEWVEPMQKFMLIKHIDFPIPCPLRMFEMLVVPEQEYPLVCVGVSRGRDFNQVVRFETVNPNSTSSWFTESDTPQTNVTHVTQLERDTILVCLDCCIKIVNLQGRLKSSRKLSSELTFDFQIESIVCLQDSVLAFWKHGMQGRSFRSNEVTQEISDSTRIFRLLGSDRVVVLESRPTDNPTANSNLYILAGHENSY
readout: residual activity (%)
One number for each entry, in %.

Examples from the recorded data:
molecule	residual activity, %
NCC(=O)Nc1ccc(-n2nc(C(F)(F)F)cc2-c2ccc3c(ccc4ccccc43)c2)cc1	84
COc1cc(C(=O)N2CCOCC2)c(F)cc1Nc1ncc(C(F)(F)F)c(NC2CC2)n1	76

Now for another entry.
Name the recorded residual activity for CNC(=O)C1[C@H]2O[C@@](C)([C@@H]1N)n1c3ccccc3c3c4c(c5c6ccccc6n2c5c31)C(=O)NC4 (stereo partly drawn) .
1

---

molecular target: IKBKB (human) (UniProt O14920); test: radiometric filter-binding kinase assay; conditions: compound 10.0 µM
Sequence (O14920 whole entry, looked up): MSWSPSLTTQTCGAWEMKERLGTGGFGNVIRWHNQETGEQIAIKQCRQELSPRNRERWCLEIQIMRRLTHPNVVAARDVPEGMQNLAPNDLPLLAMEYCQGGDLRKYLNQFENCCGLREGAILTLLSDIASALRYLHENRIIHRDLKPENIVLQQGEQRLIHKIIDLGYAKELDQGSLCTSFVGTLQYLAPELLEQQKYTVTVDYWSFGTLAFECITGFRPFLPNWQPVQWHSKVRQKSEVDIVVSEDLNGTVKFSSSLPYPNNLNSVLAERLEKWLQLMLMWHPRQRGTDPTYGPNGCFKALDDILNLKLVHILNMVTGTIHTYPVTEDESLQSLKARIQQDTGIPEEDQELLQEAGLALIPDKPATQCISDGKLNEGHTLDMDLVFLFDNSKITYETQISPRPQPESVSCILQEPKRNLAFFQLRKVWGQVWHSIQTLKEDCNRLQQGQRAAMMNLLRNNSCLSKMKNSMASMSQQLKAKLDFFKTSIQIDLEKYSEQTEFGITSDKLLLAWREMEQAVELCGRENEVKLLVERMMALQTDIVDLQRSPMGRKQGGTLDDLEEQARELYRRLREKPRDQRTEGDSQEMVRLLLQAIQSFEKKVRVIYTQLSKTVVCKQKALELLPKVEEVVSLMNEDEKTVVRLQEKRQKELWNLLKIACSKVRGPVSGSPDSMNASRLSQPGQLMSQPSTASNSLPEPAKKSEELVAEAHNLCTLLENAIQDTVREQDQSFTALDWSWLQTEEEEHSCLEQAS
# label = rule met if residual activity < 80% else rule not met

Sample answers from the record:
compound	assayedTarget	className
CC1=C(CO)C(=O)O[C@@H]([C@@H](C)[C@H]2CC[C@H]3[C@@H]4C[C@H]5O[C@]56[C@@H](O)C=CC(=O)[C@]6(C)C4CC[C@]23C)C1 (stereo partly drawn)	IKBKB (human) (UniProt O14920)	rule met
Cc1nc(-c2ccc(OCC(C)C)c(C#N)c2)sc1C(=O)O	IKBKB (human) (UniProt O14920)	rule not met
NC(=O)c1cc(-c2ccnc(NC3CCCCC3)c2)nc(N2CCNCC2)c1	IKBKB (human) (UniProt O14920)	rule met
Cc1cccc(Nc2nn(C)c3ncnc(N)c23)c1	IKBKB (human) (UniProt O14920)	rule not met
Cc1ccc(=O)n(-c2ccccc2)c1	IKBKB (human) (UniProt O14920)	rule not met
CCn1c(-c2nonc2N)nc2cncc(CNC3CCNCC3)c21	IKBKB (human) (UniProt O14920)	rule not met

Now for another entry.
Consider COc1cc(C(=O)N2CCOCC2)c(F)cc1Nc1ncc(C(F)(F)F)c(NC2CC2)n1 . Does its residual activity lie strictly below 80%?
rule not met

---

biological target: AURKB (human); experiment: radiometric filter-binding kinase assay; conditions: compound 10.0 µM
Record form. Attribute: residual activity. Fill in for each entry.
Numbers only, in %.

Example entries begin here.
smilesText	assayedTarget	residual activity [%]
Cc1cccc(Nc2nn(C)c3ncnc(N)c23)c1	AURKB (human)	87
COc1cc(C(=O)N2CCOCC2)c(F)cc1Nc1ncc(C(F)(F)F)c(NC2CC2)n1	AURKB (human)	24
NC(=O)c1cc(-c2ccnc(NC3CCCCC3)c2)nc(N2CCNCC2)c1	AURKB (human)	115
NC1(c2ccc(-c3nc4ccn5c(=O)[nH]nc5c4cc3-c3ccccc3)cc2)CCC1	AURKB (human)	78
CC(C)(C#N)c1ccc(N2C(=O)OCc3cnc4ccc(-c5cnc6ccccc6c5)cc4c32)cc1	AURKB (human)	82

Look up residual activity for the entries below, preserving their order.
1. c1ccc2c(-c3cnn4cc(-c5ccc(N6CCNCC6)cc5)cnc34)ccnc2c1
2. Cc1ccc(=O)n(-c2ccccc2)c1
3. Cc1ccc2c(c1)C(=O)[C@@]1(O)CCN(c3ccccc3)C1=N2

1. 47
2. 87
3. 88

---

Hi there, I'd appreciate the recorded residual activity for every entry that follows.
target: EPHB4 (human); assay: radiometric filter-binding kinase assay; details: compound 10.0 µM

Some solved cases for reference:
compound	residual activity
c1ccc2c(-c3cnn4cc(-c5ccc(N6CCNCC6)cc5)cnc34)ccnc2c1	46%
NC(=O)c1ccc(-c2ccc(Oc3cncc4sc(-c5nn[nH]n5)cc34)cc2)cc1	96%
NC(=O)c1c(NC(=O)C2CC2)sc2c1CCCC2	55%
O=C(Nc1ccccc1-c1cn2c(CN3CCNCC3)csc2n1)c1cnc2ccccc2n1	103%
CC1=C(CO)C(=O)O[C@@H]([C@@H](C)[C@H]2CC[C@H]3[C@@H]4C[C@H]5O[C@]56[C@@H](O)C=CC(=O)[C@]6(C)C4CC[C@]23C)C1 (some centres not stated)	105%
CC(C)C[C@H](NC(=O)CNC(=O)c1cc(Cl)ccc1Cl)B1OC(=O)CC(CC(=O)O)(C(=O)O)O1 (some centres not stated)	91%
N#Cc1c(O)c2c(-c3ccc(-c4ccccc4O)cc3)csc2[nH]c1=O	82%
NC(=O)c1cc(-c2ccnc(NC3CCCCC3)c2)nc(N2CCNCC2)c1	91%
CCCC(CCC)C(=O)O	98%
CCNc1nc(Nc2cc(F)c(C(=O)N3CCOCC3)cc2OC)ncc1C(F)(F)F	87%

Here are 7 compounds. What values of residual activity were reported for them?
1. O=C(Nc1cccnc1)c1cc(-c2ccnc(F)c2)ccc1OCc1ccccc1
2. Cc1ccc(Sc2cnc(Nc3cccc(Br)n3)s2)cc1C(=O)N1CCN(C(=O)CN)CC1
3. COc1cc(C(=O)N2CCOCC2)c(F)cc1Nc1ncc(C(F)(F)F)c(NC2CC2)n1
4. NS(=O)(=O)OC[C@@H]1C[C@@H](n2ccc3c(N[C@H]4CCc5ccccc54)ncnc32)C[C@@H]1O
5. Oc1ccc(/C=C/c2cc(O)cc(O)c2)cc1
6. Cc1ccc(-c2ccc3c(ccc4sc5c(c43)NC[C@@H](C)NC5=O)n2)cn1
7. Cc1nc(-c2ccc(OCC(C)C)c(C#N)c2)sc1C(=O)O

1. 108%
2. 4%
3. 94%
4. 108%
5. 99%
6. 99%
7. 79%

Please give residual activity, item by item, for the list that follows.
1. O=C(NOC[C@H](O)CO)c1ccc(F)c(F)c1Nc1ccc(I)cc1Cl
2. N#Cc1c(C2CCNCC2)cc(-c2c(O)cccc2OCC2CC2)nc1N
3. CCCCCc1ccc(/C=C/[C@H](O)[C@@H](CO)NC)cc1
4. CCOC(=O)c1ccc(N2NC(=O)/C(=C/c3ccc([N+](=O)[O-])o3)C2=O)cc1
5. Cc1ccc(=O)n(-c2ccccc2)c1

1: 99%; 2: 86%; 3: 123%; 4: 89%; 5: 120%

---

target: GSK3B (human) (UniProt P49841); test: radiometric filter-binding kinase assay; conditions: compound 1.0 µM
Sequence (P49841 whole entry, looked up): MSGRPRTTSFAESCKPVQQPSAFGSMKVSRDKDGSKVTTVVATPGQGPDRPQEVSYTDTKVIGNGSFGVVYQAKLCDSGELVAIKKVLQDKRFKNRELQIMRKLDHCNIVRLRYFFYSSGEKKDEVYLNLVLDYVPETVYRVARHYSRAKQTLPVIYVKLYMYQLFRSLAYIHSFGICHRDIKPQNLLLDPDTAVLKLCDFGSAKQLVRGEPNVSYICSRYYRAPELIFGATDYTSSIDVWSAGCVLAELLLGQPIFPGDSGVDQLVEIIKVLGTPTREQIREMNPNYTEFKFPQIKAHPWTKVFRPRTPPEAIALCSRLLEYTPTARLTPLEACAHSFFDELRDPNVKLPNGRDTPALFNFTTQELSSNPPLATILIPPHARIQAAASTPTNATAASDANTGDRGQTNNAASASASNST
readout: residual activity (%)
One number for each entry, in %.

See these solved cases before continuing.
molecule	assayedTarget	residual activity / %
O=C(Nc1ccccc1-c1cn2c(CN3CCNCC3)csc2n1)c1cnc2ccccc2n1	GSK3B (human) (UniProt P49841)	78
Cc1cccc(-c2nn(C(=S)Nc3ccccc3)cc2-c2ccnc3ccccc23)n1	GSK3B (human) (UniProt P49841)	79

# map each molecule to its residual activity
1. C=CC(=O)N1CCC[C@@H](n2nc(-c3ccc(Oc4ccccc4)cc3)c3c(N)ncnc32)C1
2. COc1ccc2c(c1)c1c3c(c4c5ccccc5n(C)c4c1n2CC(O)CN(C)C)C(=O)NC3=O (stereo not drawn)
3. O=C(NOCC(O)CO)c1ccc(F)c(F)c1Nc1ccc(I)cc1Cl (stereo not drawn)
4. NCC(=O)Nc1ccc(-n2nc(C(F)(F)F)cc2-c2ccc3c(ccc4ccccc43)c2)cc1
5. O=C1NC(=S)N[C@@H]1Cc1c[nH]c2ccccc12
6. NC(=O)c1ccc(-c2ccc(Oc3cncc4sc(-c5nn[nH]n5)cc34)cc2)cc1

95
20
89
110
99
38

---

target: TLK1 (human) (UniProt Q9UKI8); test: radiometric filter-binding kinase assay; conditions: compound 10.0 µM
Sequence (Q9UKI8 whole entry, looked up): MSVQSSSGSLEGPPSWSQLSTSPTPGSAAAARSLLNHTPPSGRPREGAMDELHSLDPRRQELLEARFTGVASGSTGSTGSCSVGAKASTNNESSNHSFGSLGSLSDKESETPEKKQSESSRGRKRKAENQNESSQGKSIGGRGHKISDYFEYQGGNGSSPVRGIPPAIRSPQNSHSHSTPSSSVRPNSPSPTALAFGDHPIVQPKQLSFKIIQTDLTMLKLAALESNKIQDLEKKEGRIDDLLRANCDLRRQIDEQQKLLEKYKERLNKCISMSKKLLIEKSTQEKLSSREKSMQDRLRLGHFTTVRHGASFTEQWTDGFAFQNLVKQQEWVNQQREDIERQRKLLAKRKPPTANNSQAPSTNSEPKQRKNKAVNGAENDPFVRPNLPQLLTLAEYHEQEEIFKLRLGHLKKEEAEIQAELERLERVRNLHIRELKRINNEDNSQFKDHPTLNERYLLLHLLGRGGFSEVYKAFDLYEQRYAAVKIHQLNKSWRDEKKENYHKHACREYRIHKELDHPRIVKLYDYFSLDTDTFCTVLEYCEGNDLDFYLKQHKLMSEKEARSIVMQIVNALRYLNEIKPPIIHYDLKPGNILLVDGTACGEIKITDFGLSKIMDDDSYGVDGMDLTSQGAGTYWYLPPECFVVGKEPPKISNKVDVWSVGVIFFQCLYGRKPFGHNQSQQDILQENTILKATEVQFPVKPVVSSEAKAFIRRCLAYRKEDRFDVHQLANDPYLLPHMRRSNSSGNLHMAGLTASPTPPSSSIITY
Provide the reported residual activity of each item.
Answers are plain numbers, in %.

Consider the following illustrative entries.
compound	residual activity [%]
Cc1ccc(-c2ccc3c(ccc4sc5c(c43)NC[C@@H](C)NC5=O)n2)cn1	100
CCn1c(-c2nonc2N)nc2cncc(CNC3CCNCC3)c21	88
CCOC(=O)c1ccc(N2NC(=O)/C(=C/c3ccc([N+](=O)[O-])o3)C2=O)cc1	108

Provide residual activity values for the following items, in order.
1. COC(=O)/C=C/C(=O)OC
2. O=C(NOCC(O)CO)c1ccc(F)c(F)c1Nc1ccc(I)cc1Cl (stereo not given)
3. Cc1ccc(=O)n(-c2ccccc2)c1
4. Nc1cccc2c1CN(C1CCC(=O)NC1=O)C2=O (stereo not given)
5. Cc1nc(-c2ccc(OCC(C)C)c(C#N)c2)sc1C(=O)O
6. NC(=O)c1cc(-c2ccnc(NC3CCCCC3)c2)nc(N2CCNCC2)c1
7. O=C(NOC[C@H](O)CO)c1ccc(F)c(F)c1Nc1ccc(I)cc1Cl

103
100
115
106
94
90
104

Batch request: residual activity per item, same order as input.
1. O=C(N[C@@H](COc1ccc2[nH]c(=O)[nH]c2c1)c1ccccc1)c1cccn(Cc2ccc(F)c(F)c2)c1=O
2. CC1=C(CO)C(=O)O[C@@H]([C@@H](C)[C@H]2CC[C@H]3[C@@H]4C[C@H]5O[C@]56[C@@H](O)C=CC(=O)[C@]6(C)C4CC[C@]23C)C1 (stereo not given in full)
3. CC(C)(C#N)c1ccc(N2C(=O)OCc3cnc4ccc(-c5cnc6ccccc6c5)cc4c32)cc1
4. COc1cc(C(=O)N2CCOCC2)c(F)cc1Nc1ncc(C(F)(F)F)c(NC2CC2)n1

1: 99; 2: 98; 3: 101; 4: 96

Would you mind telling me what residual activity value was observed for CNc1nc(-c2ccc3c(N)n[nH]c3c2)cc(N2C[C@@H](C(=O)NC3CCCCC3)CC[C@H]2C)n1 ?
115
